Test: yeast display, Sf9 membrane polyspecificity reagent, FACS + sequencing; frameworks hold sequencing errors
quantity: polyreactivity (PSR sort gate)

itemSequence	obsValue
QVQLVESGGGLVQAGGSLRLSCAASGFIFDGYTMGRYRQAPGKERELVAAISRSGGRTYYADSVKGRFRISRDNAKNTVYLQMNSLKPEDTAVYYCAVRYRLYSQTVASDYGYWGQGTQVTVSS	high polyreactivity
QVQLVESGGGLVQAGGSLRLSCAASGRIIDDNAMGWYRQAPGKERELVASITVSTGSTYYADSVKGRFTISRDNAKNTVYLQMNSLKPEDTAVYYCDAPYITPYGTYVFSSDYWGQGTQVTVSS	low polyreactivity
QVQLVESGGGLVQAGGSLRLSCAASGFIFSPNALGWYRPAPGKEREFVAAIRYSGTSTSYADSVKGRFTISRDNAKNTVYLQMNSLKPEDTAVYYCNAQWRFSRGYTYNYWGQGTQVTVSS	high polyreactivity
QVQLVESGGGLVQAGGTLRLSCAASGSIFAHYTMGWYRQAPGKERELVAVISRSGARTYYADSVKGRFTISRDNAKNTVYLQMNSLKPEDTAVYYCAADRTLEEDYWGQGTQVTVSS	low polyreactivity
QDQLVESGGGLVQAGGSLRLSCAASGSTIFVYTMGWYRQAPGKERELVAAISGSGGSTSYADSVKGRFTISRDNAKNTVYLQMNSLKPEDTAVYYCAARRHVYLRGSTFEFYYWGQGTQVTVSS	high polyreactivity
QVQLVESGGGLVQAGGSLRLSCAASGFTFDSYAMGWYRQAPGKERELVAAITWDGGSTYYADSVKGRYTISRDNAKNTVYLQMNSLKPEETAVYYCAADFGTISIDVYSWMDYWGQGTQVTVSS	low polyreactivity
QVQLVESGGGLVEAGGSLRLSCAASGLTFIVKAIGWYRQAPGKEREFVAAIRSGDGNTHYADSLKGRYTISRDNAKNTVYFQMNSLKPVDTAVYYCNAGFPRSYRFDYWGQGTQVTVSS	high polyreactivity
QVQLVESGGGLVQAGGSLSLSCAASGSTFAYYAMGWYRQAPGKERELVAGITWTGGSTYYADSVKGRFTISRDNAKHTDYLQMNSLKPEDTAVYYCAVTYPYGYEYDHWGQGSQVTVSS	low polyreactivity
QVHLVESGGGLVQAGGSLRLSCAASGITVGSYAMGWYRQAPGKERELVAAITSGGGTNYADSVKGRFTISRDNAKNTVYLEMKSLKPEDTAVYYCAARYYYLGTRYGYWGQGTQVTVSS	low polyreactivity
QVQLVESGGGLVQAGGSLRLSCAASGFIFWLYAMGWYRQAPGKEREVVAGITRGGGSTYYADSVKGRFTISRDNAKNTVYLQMNSLKPEDTAVYYCAADAWSSYLDRPFDYWGQGTQVTVSS	high polyreactivity
QVQLVESGGGLVQAGGSLRLSCASSGRIFTWYAMGWYRQAPGKERELVATISSGGSTNYADSVKGRFTISRDNAKNTVYLHMNSKKPEDTAVYYCAARRFFYRYYYKSDYWGQGTQVTVSS	high polyreactivity

====

Experiment: yeast display, Sf9 membrane polyspecificity reagent, FACS + sequencing; frameworks hold sequencing errors
quantity: polyreactivity (PSR sort gate)

itemSequence	obsValue
QVQLVESGGGLVQAGGSLRLSCAASGFTFYGYAMGWYRQAPGKEREFVAAISSRGGRTYYADSVKGRFTISRDNAKNTVYLQMNSLKPEDTAVYYCARRRATGRFSLDYWGQGTQVTVSS	high polyreactivity
QVQLVESGGGLVQAGGSLRLSCAASGRTFSVYAMGSSRHAPGKERELVAAITESGGSTYYADSVKGRFTISRDNAKITVYLQMNSLKPEDTAVYYCNAGPYYWYVYWGQGTQVTVSS	low polyreactivity
QVQLVESGGGLVQAGGSLRLSCAPSGSIFRGYTMGWYRQAPVKERELVAAISWSGGSTYYADSVKGRFTISRDNAKNTVYLQMNSLKPEDTAVYYCAAGDYYHRIFLWYDFWGQGTQVNVSS	low polyreactivity
QVQLVESGGGLVQAGGSLRLSCAASGSTCFHYSMGWYRQAPGKERELVAAITGTGRTTYADSVKGRFTISRDNAKTTVYLQMNSLKPEDTAVYYCAADVNYYQHRLYYWGQGTQVTVSS	low polyreactivity
QVQLVESGGGLVQAGGSLRLSCAASGSTFQPYAMGWYRQAPGKEREFVATISGSAGSTYYADSVKGRFKISRDNAKNTVYLLMNSLKPEDTAVYYCNADSGWFGYDYWGQGTQVTVSS	low polyreactivity
QVQLVESGGGLVQAGGSLRLSCAASGRTFRGNAMGWYRQAPGKESELVAVITASGSTTYADSVKGRFTISRDNAKNTVYLQMNSLKPEDTAVYYCAKYVPWYTLWLGGTDRDYWGQGTQVTVSS	low polyreactivity
QVQLVESGGGLVQAGGSLRLSCAASGSTFRYYTMGWYRQAPGKEREFVAAITSSGTSTYYADSVKGRFTISRDNAKNTVYLQMNSLKPEDTAVYYCNKVGIYGSRSRYDSWGQGTQVTVSS	high polyreactivity
QVQLVESGGGLVQAGGSLRLSCAASGRIYSTNAMRWYRQAPGKEREFVAAIYWIGGSTYYADSVKGRFTISRDNAKNTVYLQMNSLKPEDTAVYYCAAGVYDDYPWSYDIFNLYDYWGQGTQVTVSS	low polyreactivity
QVQLVESGGGLVQAGGSLRLSCAASGRIFTHNAMGWYRQAHGKERELVAAISFSGVSTYYADSVKGRFTISRDNAKNTVYLQMNSLKPEDTAVYYCARRYWYPDAFYRYDYWGQGTQVTVSS	low polyreactivity
QVQLVESGGGLVQAGGSLRLSCAASGYTFRAYVMGRYRQAPGKEREMVAGITRRGGTTYYADSVKGRFTISRDYAKNTVYLQMNSLKPEDTAVYYCTAVFRSGSIPYVSWGQGTQVTVSS	high polyreactivity
QVQLVESGGGLVQAGGSLSLSCAASARTFYYYAMGWSRQAPGKEREFVASITWRGGRTYYADSVKGRFTISRDNAKNTVYLQMNSLKPEDTAVYYCAADGSYAIGGYGYWGQGTQVTVSS	high polyreactivity

====

Test: yeast display, Sf9 membrane polyspecificity reagent, FACS + sequencing; frameworks hold sequencing errors

itemSequence	polyreactivity (PSR sort gate)
QVQLVESGGGLVQAGGSLRLSCAASGRIFGQNAMGWYRQAPGKERELVASITTSGSSTNYADSVKGRFTISRDNAKNTVYLQMNSLKPEDTAVYYCAADYVSPDPDELHDYSGYYYWGQGTQVTVSS	high polyreactivity
QVQLVESGGGLVQAGGSLRLSCAASGRIFTGNALGWYRPAPGKERELVAGISTSGGSTYYADSVKGRFTISRDNAKNTVYLQMNSLKPEDTAVYYCAADWYYRRSYRRMNYWGQGTQVTVSS	high polyreactivity

====

Test: yeast display, Sf9 membrane polyspecificity reagent, FACS + sequencing; frameworks hold sequencing errors

itemSequence	polyreactivity (PSR sort gate)
QVQLVESGGGLVQAGGSLRISCAASGFTLRVNAMGWYRQAPGKERELVAAISDSGGDTYYSNSVKGRFTISRDNAKNTVYLQMNSLKPEDTAVYYCAADDGSENDYWGQGTQVTVSS	low polyreactivity
QVQLVESGGGLVQAGGSLRLSCAASGRILTYYAMGWYRPAPGKERELVAAISWRAGSTYYADSVKGRFTISRDNAKNTVYLQMNSLKPEDTAVYYCAADLPYWYNRKPIFPYYYWGQGTQVTVSS	high polyreactivity
QVQLVESGGGLVQAGGSLSLSFAASGRTFARYAMGWYRQAPGKEREFVAGINWSGGGTYYADSVKGRFTISRDNAKNTVYLQMNSLKTEDTAVYYCAAVPTNRYGYWGQGTQVTVSS	high polyreactivity
QVQLVESGGGLVQAGGSLRLSCAASGSIFYFNTMAWYRQAPGKERELVAVISRRGGSTYYADSVKRRFTISRDNAKNTVYLQMNSLKPEDTAVYYCNAEVFDLWRSFLSPYEYWGQGTQVTVSS	low polyreactivity
QVQLVESGGGLVQAGGSLRLICAASGSIFYRYAMGWYRQAHGKEREFVAAITYSSRTTYYADSVQGRFTISRDNAKNTVYLQMNSLKPEDTAVYYCAAELSSSYYRRAMDYCGQGTQVTVSS	high polyreactivity
QVQLVESGGGLVQAGGSLRLSCAASGNIFVAYAMGWYRQAPGKERELVAVISNGGRTYYADSVKGRFTISRDKAKNNVYLQMNSLKPADTAVSYCATVAHASYGWHNYWGQGTQVTVSS	high polyreactivity
QVQLVESGGGLVQAGGSLRLSCAASGGIFSRYAMGWYRQAPGKEREFVAAISFSGASTYYTDSVKGRFTISRDTAKNTVYLQMNSLKPEDTAVYYCAAYWDAEGRRYTRLDYWGQGTQVTVSS	low polyreactivity
QVQLVQSGGGLVQAGGSLRLSCAASGRTFGTYAMGWYRQAPGKEREFVAVITNRGGRTYYADSVKGRFTISRDNAKNTVYLQMNSLKPEDTAVYYCTAVGRGWAFDYWGQGTQVTVSS	high polyreactivity
QVQLVESGGGLVQAGGSLRLSCAASGFTFNRYAMGWYRQAPGKERELVARITRGGSTKYADSVKGRFTISRDNAKNTVYLEMNSLKPEDTAVYYCAADYGGFLVYDYWGQGTQVTVSS	high polyreactivity
QVQLVESGGGLVQAGGSLRLSCAASGSIFRTYAMGWYRQAPGKEWELVAAISGSGSRTYYADSVKGRFTISRDNAKNTVYLQMNSLKPEDTAVYYCAAQTFAYKVFFLYDYWGQGTQVTVSS	low polyreactivity
QVQLVESGGGLVQAGGSLRLSCAASGFTFSYNAMGWYRQAPGKERELVAVINSSGGRTYYADSVKGRFTISRDNAKNTVYLQMNSLKPEDTAVYYCAARPVLAKYYYWGQGTQVTVSS	high polyreactivity
